Target: Cellular tumor antigen p53 (Homo sapiens)
Experiment: Primary qHTS for small molecule compounds that upregulate eGFP-tagged delta133p53alpha (in N-terminal) cells. (AID 2060322);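 note: cells pre-induced with doxycycline then dosed without doxycycline; series mostly up to about 56 µM; 0% = DMSO vehicle and 100% = reference activator; nearly all actives have a fitted effect of over 75% in size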
Settings: NCI-H358 eGFP-delta133p53alpha fluorescence, 24 h; active compounds read high
Records with an inconclusive call do not appear.
property: activation (%)
Write the number in % without appending the unit.

Recorded activation for "CCOC(=O)c1ncn2c1[C@@H]1CCCN1C(=O)c1cc(OC)ccc1-2" with Cellular tumor antigen p53 (Homo sapiens), please? 2.15

Now consider CC(Cc1ccccc1)N(C)Cc1ccco1 (centres undefined) . -11.7

Thanks! And "NCCCCCNC1(c2ccccc2)CCCCC1" ? -6.68

Repeat with "C=CC(C)(C)c1[nH]c2c(CC=C(C)C)cc(CC=C(C)C)cc2c1C[C@@H]1NC(=O)[C@H](C)NC1=O" 14.3

Also check "CN[C@@H]1C[C@@H](c2ccc(Cl)c(Cl)c2)c2ccccc21" -33.4

# repeat for "C[C@H]([C@H](O)CCC(C)(C)O)[C@H]1CC[C@@]2(O)C3=CC(=O)[C@@H]4C[C@@H](O)[C@@H](O)C[C@]4(C)[C@@H]3CC[C@]12C" -1.72

Proceed to "CCS(=O)(=O)C(C)(C)S(=O)(=O)CC" -5.86

Now consider "N#CCCN" and answer again. 1.42

What about this compound? CN1CCCCC1Cn1cc(C(=O)c2cc([N+](=O)[O-])ccc2I)c2ccccc21 (centres undefined) 23.9
